# procedureSummary: NCI Yeast Anticancer Drug Screen. Data for the rad50 strain (AID 155);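 note: 0% = growth of vehicle-only cultures of the same strain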
# cond: S. cerevisiae rad50 strain growth inhibition; at 50.0 µM; stronger effect = higher value
This is part of a sample that, as a whole, favours compounds with a hit. Of some 79,000 tested, about 15% had one in any assay.
measureName: growth inhibition (%)
Write the number in % without appending the unit.

Input: Which measured growth inhibition value corresponds to CCCCC(NC(=O)c1cnc2ccccc2n1)C(=O)O (stereo not drawn) ?
Output: 22.2

Input: Which measured growth inhibition value corresponds to "COc1cc(O)c(C(C)=O)c(O)c1O" ?
Output: -20.4

Input: Which measured growth inhibition value corresponds to "CC1(C)C(=NNC(=S)NN)C(C)(C)C1=NNC(=S)NN" ?
Output: 40.5

Input: Which measured growth inhibition value corresponds to "CNC(=O)Nc1cc(C)ccc1Cl" ?
Output: -0.9

Input: Which measured growth inhibition value corresponds to "O=C(Nc1ccc([N+](=O)[O-])cc1)c1cc(N2CCOCC2)ccn1" ?
Output: 38

Input: Which measured growth inhibition value corresponds to "CCCCNC(=O)c1ccc([N+](=O)[O-])cc1" ?
Output: 29.3

Input: Which measured growth inhibition value corresponds to CC(C)C(NC(=O)OC(c1ccccc1)c1ccccc1)C(=O)NC(CSC(c1ccccc1)(c1ccccc1)c1ccccc1)C(=O)NCC(=O)OCc1ccccc1 (stereo not drawn) ?
Output: 4.45

Input: Which measured growth inhibition value corresponds to C[C@]12CC[C@@H]3c4cc(C=O)c(OCc5ccccc5)cc4CC[C@H]3[C@@H]1CCC2OCc1ccccc1 (stereo partly drawn) ?
Output: 12.4

Input: Which measured growth inhibition value corresponds to "COc1ccc(-c2cc(=O)c3c(OC)cccc3o2)c(OC)c1OC" ?
Output: -8.9

Input: Which measured growth inhibition value corresponds to COc1ccc(-c2cc(-c3ccccc3)c(C#N)c(=O)n2C2OC(CO)C(O)C(O)C2O)cc1 (stereo not drawn) ?
Output: -8.2

Input: Which measured growth inhibition value corresponds to "NC(=O)C(=CNC(=S)Nc1ccc(Cl)c(Cl)c1)C(N)=O" ?
Output: 8.6

Input: Which measured growth inhibition value corresponds to "O=C(O)C(=O)c1ccc(O)cc1O" ?
Output: -1.6

Input: Which measured growth inhibition value corresponds to "CCCOC(=O)/C=C/c1ccc(OC)cc1" ?
Output: -10.7

Input: Which measured growth inhibition value corresponds to "CCOC(=O)CSc1nc(N)c2c(-c3ccccc3)c3c(nc2n1)CCCC3" ?
Output: -23.1

Input: Which measured growth inhibition value corresponds to "O=C(Cc1ccc([N+](=O)[O-])c([N+](=O)[O-])c1CC(=O)C(=O)Nc1cc(Cl)ccc1Cl)C(=O)Nc1cc(Cl)ccc1Cl" ?
Output: -16

Input: Which measured growth inhibition value corresponds to "CC(=O)Nc1ccc(SC#N)c2c(NC(C)=O)cccc12" ?
Output: 44.6

Input: Which measured growth inhibition value corresponds to "O=C(CC(=O)N(C(=O)c1ccccc1)c1ccc(Cl)cc1)N/N=C\c1ccccc1O" ?
Output: 1.35

Input: Which measured growth inhibition value corresponds to "C/C(=N/NS(=O)(=O)c1ccc(C)cc1)C(C)C" ?
Output: 3.05

Input: Which measured growth inhibition value corresponds to "COc1cc(C(=O)C/C(CCC(=O)Nc2ccc(Cl)cc2Cl)=N/Nc2nnc(C)n2N)ccc1O" ?
Output: -19.6

Input: Which measured growth inhibition value corresponds to "O=C(/C=C/c1ccccc1)Nc1cc(Cl)ccc1Cl" ?
Output: 4.75

Input: Which measured growth inhibition value corresponds to "Clc1ccc2c(c1)C1Oc3ccc(Cl)cc3C(O2)O1" ?
Output: -5.5

Input: Which measured growth inhibition value corresponds to ClCC1COC(CCc2ccccc2)O1 (stereo not drawn) ?
Output: 18.4

Input: Which measured growth inhibition value corresponds to "CCc1c(CNc2ccc(Cl)c(Cl)c2)ccc2nc(N)nc(N)c12" ?
Output: 90.7

Input: Which measured growth inhibition value corresponds to "Cc1ccc2c(c1)C(c1ccccc1)(c1ccccc1)OC2=O" ?
Output: 17.6

Input: Which measured growth inhibition value corresponds to "C[N+](C)(C)c1cc2c(nn1)Nc1ccccc1S2" ?
Output: 17.4

Input: Which measured growth inhibition value corresponds to CCOC(Nc1ccccc1[N+](=O)[O-])C(=O)c1ccccc1 (stereo not drawn) ?
Output: 21.4

Input: Which measured growth inhibition value corresponds to "CCOC(=O)Nc1ccc2c(c1Cl)C(=O)c1ccccc1C2=O" ?
Output: -6.85

Input: Which measured growth inhibition value corresponds to C#CCC(O)c1ccc(OC)c(OCc2ccccc2)c1 (stereo not drawn) ?
Output: -6.05

Input: Which measured growth inhibition value corresponds to CC(C)(C)OC1COCCO1 (stereo not drawn) ?
Output: 12.1

Input: Which measured growth inhibition value corresponds to "COc1nc(Cl)nc(C(N)=O)c1N" ?
Output: 7.95

Input: Which measured growth inhibition value corresponds to CCOC(=O)c1ccc(CS(=O)c2ccccc2)c([N+](=O)[O-])c1 (stereo not drawn) ?
Output: 14.7

Input: Which measured growth inhibition value corresponds to "C/C(N=NC(=S)N(C)C)=C1\C=CC=CN1O" ?
Output: -0.25

Input: Which measured growth inhibition value corresponds to "CC1(C)[C@@H]2C[C@H]1[C@@H](Cc1cccc(C[C@H]3c4cc(-c5ccccn5)ncc4[C@H]4C[C@@H]3C4(C)C)c1)c1cc(-c3ccccn3)ncc12" ?
Output: 45.4

Input: Which measured growth inhibition value corresponds to "Cc1cc(C)cc(C(=O)OC2CCCC2)c1" ?
Output: 1.2

Input: Which measured growth inhibition value corresponds to "O=C(O)c1ccc(O)cc1O" ?
Output: 12.8

Input: Which measured growth inhibition value corresponds to "CCOc1ccc(NC(=O)C(=O)CC(=O)c2sc(NNC(C)=O)nc2C)cc1" ?
Output: -21.1

Input: Which measured growth inhibition value corresponds to "COc1ccc2c(Cl)ccnc2c1OC" ?
Output: 15.3

Input: Which measured growth inhibition value corresponds to CC1OC(c2ccc3c(c2O)C(=O)C2=C(C3=O)C3(O)C(=O)CC(C)(O)CC3(O)C=C2)CC(O)C1O (stereo not drawn) ?
Output: -19.2
